# EXPERIMENTAL DETAILS: NOVARTIS: Cytotoxicity against human hepatocellular carcinoma cell line (Huh7)
# Format: toxicity, cell-based, Huh-7
# MEASUREMENT SETUP: Huh7 cells (hepatocellular carcinoma cell line)
Form field: CC50 (one value per entry).
Report the figure in µM without appending any unit label.

// solved cases for CC50 follow
COMPOUND | READOUT UNITS | OBS VALUE
OC(CN1CCN(Cc2ccccc2)CC1)Cn1c2ccc(I)cc2c2cc(I)ccc21 (stereo not given) | µM | 20.1
CC(C)NCC(O)c1ccc2ccccc2c1 (stereo not given) [PRONETALOL] | µM | 13.1

Cc1nc2ccc(-c3ccc4nc(C)[nH]c4c3)cc2[nH]1 yielded CC50 of 8.63

###

# EXPERIMENTAL DETAILS: NOVARTIS: Cytotoxicity against human hepatocellular carcinoma cell line (Huh7)
# Type: toxicity, cell-based, Huh-7
# MEASUREMENT SETUP: Huh7 cells (hepatocellular carcinoma cell line)
READOUT NAME: CC50

As a guide, the following entries are already answered.
COMPOUND | CC50
CCCN(CCC)[P+](CCC)(c1ccc([P+](CCC)(N(CCC)CCC)N(CCC)CCC)cc1)N(CCC)CCC | 72.6 µM
CCCn1c(C=NNc2nc3ccccc3[nH]2)nc2ccccc21 | 62.8 µM
O=C(NC(=S)Nc1ccc(NC(=O)c2cccs2)cc1)c1ccco1 | > 100 µM
COc1cc(CN2CCC3(CC2)CC3C(=O)NCCc2ccccc2OC)ccc1O (stereo unspecified) | > 100 µM
COC(=O)C1=C(C)N/C(=C\c2cc(C)n(-c3cc(C)ccc3OC)c2C)C1=O | > 10 µM
CC(C(=O)NCCCN)N(Cc1ccccc1)S(C)(=O)=O (stereo unspecified) | > 10 µM
CCOC(=O)c1c(N=Cc2cccc(OC)c2O)sc2c1CCN(C)C2 | > 100 µM
CCc1ccc(C(=O)Oc2ccccc2-c2nc3cc(C)ccn3c2NC(C)(C)CC(C)(C)C)cc1 | > 10 µM
CCCN(CC(=O)Nc1cc(C(C)(C)C)nn1-c1cccc(C)c1)C(=O)c1cccc([N+](=O)[O-])c1 | > 10 µM
COc1cc(OC)cc(C(=O)N2CCC(C(=O)Nc3cccc4ccccc34)CC2)c1 | > 10 µM

Just so you know, measured CC50 for CCc1ccc2[nH]c(=O)c(CN(CCN(C)C)C(=S)NCCCN(C)C)cc2c1 came out at > 10 µM

# CC50 (compound: C=CC1CN2CCC1CC2[C@@H](OC(=O)/C=C/c1ccc(Cl)cc1)c1ccnc2ccc(OC)cc12 (stereo partly specified) ) is > 10 µM

Entry Cn1nc(C(=O)N2CCCC2)c2c1CCC(NCc1cnc3ccccc3c1)C2 (stereo unspecified) , CC50 reported as > 10 µM

// CC50 lookup, compound = Oc1ccc(-c2ccc3c(c2)OCO3)cc1CNCC1CC2C=CC1C21CC1 (stereo unspecified) , result: > 100 µM

For record Cc1cc2c(cc1S(=O)(=O)N(C)C1CCCCC1)OCC(=O)N2 the listed CC50 is > 10 µM

Record summary for COc1ccc(CCN2C(=O)CC(C(=O)Nc3cccc(Cl)c3)SC2=Nc2ccccc2)cc1OC (stereo unspecified) : reported CC50 = > 100 µM

###

The entries below are paired with their reported CC50.
# EXPERIMENTAL DETAILS: NOVARTIS: Cytotoxicity against human hepatocellular carcinoma cell line (Huh7)
# Format: toxicity, cell-based, Huh-7
# MEASUREMENT SETUP: Huh7 cells (hepatocellular carcinoma cell line)

// O=C(CC1N=C2c3ccccc3N=C(SCc3cccc(F)c3)N2C1=O)NCc1cccs1 (stereo unspecified) : CC50 value = > 100 µM

Memo: COC(=O)c1c(-c2ccccc2Cl)csc1N , reported CC50: > 10 µM

molecule CN(C)c1ccc(/C=C/c2cc(/C=C/c3ccc(N(C)C)cc3)[n+]3ccccc3n2)cc1 , CC50 observed: > 10 µM

Lab note: Cc1ccc(-c2cc(C(F)(F)F)n3nc(C(=O)Nc4cccc(Cl)c4Cl)cc3n2)cc1 gave CC50 of > 10 µM

Item: Cc1ccc(S(=O)(=O)NNC(=O)C2CCC(c3ccccc3)CC2)c2nsnc12 (stereo unspecified) | CC50: > 10 µM

For this molecule ( O=C(CSc1cn(CCNC(=O)c2ccc(F)cc2)c2ccccc12)Nc1ccccc1F ), measured CC50 is > 98.9 µM

###

Quick list: EC50 per entry.
# Test system: Plasmodium falciparum
# EXPERIMENTAL DETAILS: NOVARTIS: Inhibition of Plasmodium falciparum 3D7 (drug-susceptible) proliferation in erythrocyte-based infection assay
# Format: functional, organism-based
# MEASUREMENT SETUP: Plasmodium falciparum, 3D7
# unit: nM | format: bare number

Example results:
MOLECULE | SYSTEM | OBS VALUE
CC(C)(C)CC(C)(C)Nc1c(-c2ccccc2OC(=O)c2ccc(Cl)cc2Cl)nc2ccccn12 | Plasmodium falciparum | 279
CCCCNC(=O)C1CCC(CN(Cc2c(Cl)cccc2Cl)S(=O)(=O)c2ccc(Br)cc2)CC1 (centres undefined) | Plasmodium falciparum | 546

Value of EC50 reported for the molecule COCCOC(=O)C1=C(C)NC2=C(C(=O)CC(c3ccc(OC)c(OC)c3)C2)C1c1cccc(Cl)c1Cl (centres undefined) is 178

Kindly note the recorded EC50 for NC(=NCc1ccccc1)NC(=O)c1nc(Cl)c(N)nc1N , which is 1160

Memo: CCN(CC)CCN1C(=O)c2ccccc2NC1c1ccc(Br)cc1 (centres undefined) , reported EC50: 218

Memo: O=C(Nc1ccc(C23CC4CC(CC(c5ccccc5)(C4)C2)C3)cc1)c1cccs1 , reported EC50: 645

The recorded EC50 for CCc1ccc2ncc(C(=O)OCCOC)c(O)c2c1 is 777

COc1ccc(Nc2nc(NN=Cc3cccc(I)c3)nc(Nc3ccc([N+](=O)[O-])cc3)n2)cc1 has a reported EC50 of 305

###

# EXPERIMENTAL DETAILS: NOVARTIS: Cytotoxicity against human hepatocellular carcinoma cell line (Huh7)
# Assay type: toxicity, cell-based, Huh-7
# MEASUREMENT SETUP: Huh7 cells (hepatocellular carcinoma cell line)
READOUT NAME: CC50

COMPOUND | READOUT NAME | OBS VALUE
COc1cc(NC(C)CCCN(Cc2ccc(OC)c(OC)c2)C(=O)c2ccccc2C)c2ncccc2c1 (stereo not given) | CC50 | > 12.2 µM

COc1ccc(C2=C(c3ccc(OC)cc3)C3(c4ccccc4)C(=O)C2(c2ccccc2)C2C(=O)N(c4ccc(F)cc4)C(=O)C23)cc1 (stereo not given) yielded CC50 of > 100 µM

The compound identified as COc1ccc(C2C(C(=O)c3ccccc3)=C(O)C(=O)N2c2cccc(Cl)c2)c(OC)c1 (stereo not given) registered its CC50 at > 100 µM

CC50 for OC(CN1CCN(c2ccnc3cc(Cl)ccc23)CC1)CN1CCN(c2ccnc3cc(Cl)ccc23)CC1 is > 10 µM

Per the record, Oc1c2c(nc3cc(-c4ccc(-c5ccccc5)cc4)nn13)CCCC2 has CC50 of > 73.8 µM

###

# EXPERIMENTAL DETAILS: NOVARTIS: Cytotoxicity against human hepatocellular carcinoma cell line (Huh7)
# Type: toxicity, cell-based, Huh-7
# MEASUREMENT SETUP: Huh7 cells (hepatocellular carcinoma cell line)
The entries below come with measured CC50 values attached.

Use the examples below as a reference point.
COMPOUND | OBS VALUE
O=C1CN(C(=O)CC2CCCCC2)C(c2ccccc2)c2cc(Cl)ccc2N1 (stereo unspecified) | 46.3 µM
CCOc1ccc(-n2cc(-c3ccccc3)c3c(SCc4cc(C)ccc4C)ncnc32)cc1 | > 10 µM
CNC(=O)NNC(=O)c1cccnc1 | > 100 µM
CCCCN(CCCC)S(=O)(=O)c1cc(Br)cc2c1N(C(C)=O)CC2 | > 100 µM
O=C(NCc1ccccc1)c1cnc(NCCC(c2ccccc2)c2ccccc2)nc1NC1CC1 | > 10 µM

Item: CCCN[P+](CC(C)C)(NCCC)NCCC | CC50: 3.34 µM

So for C=CCSc1nc(N)c2c3c(sc2n1)CN(CCC)CC3 , the logged CC50 turned out to be > 100 µM

According to the records, this compound Cc1cc(C)nc(SCc2cc(=O)c(OC(=O)c3cccc([N+](=O)[O-])c3C)co2)n1 displays CC50 of > 100 µM

The compound listed as Cc1ccn2c(NC(C)(C)CC(C)(C)C)c(-c3ccccc3OC(=O)C(C)(C)C)nc2c1 has a reported CC50 of > 11.1 µM

CC50 reported for this compound CCOC(=O)C1=C(C)NC2=C(C(=O)C(C(=O)OCC)C(c3ccccc3OC)C2)C1c1sccc1C (stereo unspecified) : > 100 µM

Reported CC50 ( OCCNc1nc(Nc2ccccc2O)nc2ccccc12 ) = 58.7 µM
